binding vs Reference Sequence (=100%) values by entry
Biological target: T1, monoclonal antibody 21-4-3
T1 construct: mouse IgG1 heavy chain, kappa light chain; also called mAb21-4-3; produced by hybridoma ABH0015 (LMBP-9680-CB)
Experiment: Biacore, captured 21-4-3
Procedure: Binding measurements were performed using a Biacore T100 using a CM5 T120416 sensor chip, with running buffer HBS-EP+, 25° C. […] The anti-mouse IgG used was a polyclonal rabbit anti-mouse IgG antibodies reacting with all IgG subclasses, IgA and IgM (GE Healthcare; Cat#BR-1008-38; Lot#10056316). […]

binder	binding vs Reference Sequence (=100%)
SEQ ID NO 77 (VHH, C-terminal: A) VHH: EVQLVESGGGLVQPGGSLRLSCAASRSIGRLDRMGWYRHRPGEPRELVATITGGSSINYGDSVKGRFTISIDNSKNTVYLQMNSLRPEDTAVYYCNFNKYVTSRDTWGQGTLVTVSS	1
SEQ ID NO 75 (VHH, C-terminal: AA) VHH: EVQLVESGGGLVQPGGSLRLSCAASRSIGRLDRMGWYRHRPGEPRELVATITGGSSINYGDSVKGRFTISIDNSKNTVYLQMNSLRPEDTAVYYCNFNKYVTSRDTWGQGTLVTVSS	1
SEQ ID NO 79 (VHH, C-terminal: GG) VHH: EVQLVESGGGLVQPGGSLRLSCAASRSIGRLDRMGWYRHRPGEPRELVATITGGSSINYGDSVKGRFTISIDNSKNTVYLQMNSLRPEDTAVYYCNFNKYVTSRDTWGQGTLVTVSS	2
SEQ ID NO 76 (VHH, C-terminal: GGG) VHH: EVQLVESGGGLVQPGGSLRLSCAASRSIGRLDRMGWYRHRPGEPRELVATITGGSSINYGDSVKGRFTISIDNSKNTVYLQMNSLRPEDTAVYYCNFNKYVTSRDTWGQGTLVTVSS	2
SEQ ID NO 48 (VHH) VHH: EVQLVESGGGLVQPGGSLRLSCIASGLPFSTKSMGWFRQAPGKEREFVARISPGGTSRYYGDFVKGRFAISRDNAKNTTWLQMNSLKAEDTAVYYCASGERSTYIGSNYYRTNEYDYWGTGTQVTVSS	3
SEQ ID NO 45 (VHH, mutations: P14A, P41T, S62F, S74A, S82bN, R83K, L108Q) VHH: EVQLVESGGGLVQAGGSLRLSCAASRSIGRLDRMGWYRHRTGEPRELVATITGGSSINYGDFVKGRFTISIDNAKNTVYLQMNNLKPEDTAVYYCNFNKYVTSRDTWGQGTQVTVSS	22
SEQ ID NO 73 (VHH, C-terminal: G; S112G, S113G) VHH: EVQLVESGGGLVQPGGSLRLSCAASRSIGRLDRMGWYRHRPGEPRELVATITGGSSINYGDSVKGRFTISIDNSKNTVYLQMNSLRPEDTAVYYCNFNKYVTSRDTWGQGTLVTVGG	1
SEQ ID NO 78 (VHH, Q13R) VHH: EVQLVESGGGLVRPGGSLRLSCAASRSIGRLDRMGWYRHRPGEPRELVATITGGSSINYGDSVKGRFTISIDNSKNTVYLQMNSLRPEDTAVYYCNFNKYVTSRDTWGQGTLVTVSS	1
SEQ ID NO 88 (VHH, C-terminal: A; L11S, T110Q) VHH: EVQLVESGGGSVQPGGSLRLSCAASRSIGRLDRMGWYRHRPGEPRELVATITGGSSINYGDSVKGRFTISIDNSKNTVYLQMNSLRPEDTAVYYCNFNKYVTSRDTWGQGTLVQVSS	1
SEQ ID NO 46 (VHH, C-terminal tag) VHH: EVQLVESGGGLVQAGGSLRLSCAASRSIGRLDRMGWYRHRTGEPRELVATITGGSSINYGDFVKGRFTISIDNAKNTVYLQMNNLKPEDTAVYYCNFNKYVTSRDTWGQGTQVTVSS	2
SEQ ID NO 66 (VHH, L11S) VHH: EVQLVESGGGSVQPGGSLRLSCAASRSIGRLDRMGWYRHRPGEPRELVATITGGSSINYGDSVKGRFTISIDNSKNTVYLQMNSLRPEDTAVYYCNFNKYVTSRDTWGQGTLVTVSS	48
SEQ ID NO 83 (VHH, T87A) VHH: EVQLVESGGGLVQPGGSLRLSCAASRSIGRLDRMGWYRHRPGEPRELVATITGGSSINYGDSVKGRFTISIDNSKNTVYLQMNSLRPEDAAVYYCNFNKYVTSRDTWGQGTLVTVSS	79
SEQ ID NO 47 (VHH) VHH: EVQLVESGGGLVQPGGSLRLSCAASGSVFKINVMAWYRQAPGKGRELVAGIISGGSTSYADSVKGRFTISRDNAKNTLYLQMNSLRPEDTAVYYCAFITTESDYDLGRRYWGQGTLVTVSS	4
SEQ ID NO 65 (VHH, P14A) VHH: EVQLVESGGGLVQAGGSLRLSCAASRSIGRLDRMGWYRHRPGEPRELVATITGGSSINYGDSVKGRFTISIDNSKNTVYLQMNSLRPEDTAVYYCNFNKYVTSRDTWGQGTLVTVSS	23
SEQ ID NO 81 (VHH, L11V) VHH: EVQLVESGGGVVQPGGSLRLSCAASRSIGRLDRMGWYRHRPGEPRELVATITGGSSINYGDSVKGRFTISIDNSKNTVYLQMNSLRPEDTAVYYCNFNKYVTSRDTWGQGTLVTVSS	75
